Provenance of the data: patent US20240376198A1

Molecular target: T1, mouse NKp46 (mouse, UniProt Q8C567 17-325)
T1 construct: whole, on cells
T1 sequence (looked up): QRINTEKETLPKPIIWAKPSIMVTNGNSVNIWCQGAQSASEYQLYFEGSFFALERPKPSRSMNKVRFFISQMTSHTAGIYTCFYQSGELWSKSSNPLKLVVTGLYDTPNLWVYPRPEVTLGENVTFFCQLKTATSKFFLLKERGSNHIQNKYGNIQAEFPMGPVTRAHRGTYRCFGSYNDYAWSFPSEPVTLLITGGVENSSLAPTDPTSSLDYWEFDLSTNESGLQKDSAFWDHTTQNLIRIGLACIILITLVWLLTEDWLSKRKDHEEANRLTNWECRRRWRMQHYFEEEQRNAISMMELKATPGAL
Assay: flow cytometry, HEK293F cells transfected with mouse NKp46
reported.endpoint: Bmax (MFI)
Expressed in MFI, but write only the number.

Quick one: Bmax (MFI) for NKp46-hz5D7v11-Fc* (Fc fusion, VHH-Fc fusion with an IgG1 Fc lacking a hinge (Fc*)) EVQLVESGGGEVQPGGSLRLSCAASGRTFASAAMGWFRQAPGKEREFVAAISRSDDTYYADSVKGRFTISRDNAKNTVYLQMSSLRAEDTAVYYCAAVVPTYGSNIYVYSAAYNYWGQGTLVTVKPGGGGPSVFLFPPKPKDTLMISRTPEVTCVVVDVSHEDPEVKFNWYVDGVEVHNAKTKPREEQYNSTYRVVSVLTVLHQDWLNGKEYKCKVSNKALPAPIEKTISKAKGQPREPQVYTLPPSRDELTKNQVSLTCLVKGFYPSDIAVEWESNGQPENNYKTTPPVLDSDGSFFLYSKLTVDKSRWQQGNVFSCSVMHEALHNHYTQKSLSLSPG ?
723000
